Conditions: in acetone, 318.15 K
measurement.kind: solubility (mole fraction)
Keep it simple and answer with nothing but the number.

QUERY: Item under review: O=C(O)[C@@H]1C[C@@H](O)CN1 . Reported solubility (mole fraction)?
RESULT: 0.0032

* * *

Conditions: in dichloromethane, 308.15 K
measurement.kind: solubility (mole fraction)
Keep it simple and answer with nothing but the number.

QUERY: Item under review: O=C(O)[C@@H]1C[C@@H](O)CN1 . Reported solubility (mole fraction)?
RESULT: 0.000614

* * *

Conditions: in acetonitrile, 318.15 K
measurement.kind: solubility (mole fraction)
Keep it simple and answer with nothing but the number.

QUERY: Item under review: O=C(O)[C@@H]1C[C@@H](O)CN1 . Reported solubility (mole fraction)?
RESULT: 0.000267
